molecular target: human TPO receptor (Homo sapiens); construct: expressed in transfected cells; test: Proliferation of TPO-dependent cell line UT7/EPO-mpl, WST-8 reagent (Assay Example 5); assay type: cell-based; conditions: WST-8, 4 days, growth with 10 ng/ml TPO = 100%

- compound: "CC(NNC(=O)c1ccc(O)cc1O)=C1C(=O)N(c2ccc(C)c(C)c2)N=C1C(F)(F)F [compound 94]"
  study system: "human TPO receptor (Homo sapiens)"
  Efficacy (%) (maximal growth rate): 95
- compound: "CC1=NN(c2ccc(C(C)(C)C)cc2)C(=O)C1=C(C)NNC(=O)c1ccc(C(=O)O)s1 [compound 99]"
  study system: "human TPO receptor (Homo sapiens)"
  Efficacy (%) (maximal growth rate): 110
- compound: "CC(NNC(=O)c1ccc(C(=O)O)cc1)=C1C(=O)N(c2ccc(C)c(C)c2)N=C1C(F)(F)F [compound 96]"
  study system: "human TPO receptor (Homo sapiens)"
  Efficacy (%) (maximal growth rate): 93
- compound: "CC1=NN(c2ccc(C(C)(C)C)cc2)C(=O)C1=CNNC(=O)c1ccc(C(=O)O)cc1 [compound 97]"
  study system: "human TPO receptor (Homo sapiens)"
  Efficacy (%) (maximal growth rate): 94
- compound: "CC1=NN(c2ccc(C(C)(C)C)cc2)C(=O)C1=C(C)NNC(=O)c1ccc(-c2nnn[nH]2)cc1 [compound 103]"
  study system: "human TPO receptor (Homo sapiens)"
  Efficacy (%) (maximal growth rate): 90
- compound: "CC1=NN(c2ccc(C(F)(F)F)cn2)C(=O)C1=C(C)NNC(=O)c1ccc(C(=O)O)cc1 [compound 102]"
  study system: "human TPO receptor (Homo sapiens)"
  Efficacy (%) (maximal growth rate): 100
- compound: "COC(=O)c1ccc(C(=O)NNC(C)=C2C(=O)N(c3ccc(C)c(C)c3)N=C2C(F)(F)F)cc1 [compound 95]"
  study system: "human TPO receptor (Homo sapiens)"
  Efficacy (%) (maximal growth rate): 71
- compound: "COC(=O)c1ccc(C(=O)NNC(C)=C2C(=O)N(c3ccc(C(C)(C)C)cc3)N=C2C)s1 [compound 98]"
  study system: "human TPO receptor (Homo sapiens)"
  Efficacy (%) (maximal growth rate): 96
- compound: "CC1=NN(c2ccc3ccccc3n2)C(=O)C1=C(C)NNC(=O)c1ccc(C(=O)O)cc1 [compound 100]"
  study system: "human TPO receptor (Homo sapiens)"
  Efficacy (%) (maximal growth rate): 107
- compound: "COC(=O)c1ccc(C(=O)NNC(C)=C2C(=O)N(c3ccc(Cl)nn3)N=C2C)cc1 [compound 101]"
  study system: "human TPO receptor (Homo sapiens)"
  Efficacy (%) (maximal growth rate): 100

====

Measured EC50 values are reported for all entries that follow.
Molecular target: human TPO receptor (Homo sapiens, UniProt P40238)
Construct: expressed in transfected cells
Sequence (P40238 26-635): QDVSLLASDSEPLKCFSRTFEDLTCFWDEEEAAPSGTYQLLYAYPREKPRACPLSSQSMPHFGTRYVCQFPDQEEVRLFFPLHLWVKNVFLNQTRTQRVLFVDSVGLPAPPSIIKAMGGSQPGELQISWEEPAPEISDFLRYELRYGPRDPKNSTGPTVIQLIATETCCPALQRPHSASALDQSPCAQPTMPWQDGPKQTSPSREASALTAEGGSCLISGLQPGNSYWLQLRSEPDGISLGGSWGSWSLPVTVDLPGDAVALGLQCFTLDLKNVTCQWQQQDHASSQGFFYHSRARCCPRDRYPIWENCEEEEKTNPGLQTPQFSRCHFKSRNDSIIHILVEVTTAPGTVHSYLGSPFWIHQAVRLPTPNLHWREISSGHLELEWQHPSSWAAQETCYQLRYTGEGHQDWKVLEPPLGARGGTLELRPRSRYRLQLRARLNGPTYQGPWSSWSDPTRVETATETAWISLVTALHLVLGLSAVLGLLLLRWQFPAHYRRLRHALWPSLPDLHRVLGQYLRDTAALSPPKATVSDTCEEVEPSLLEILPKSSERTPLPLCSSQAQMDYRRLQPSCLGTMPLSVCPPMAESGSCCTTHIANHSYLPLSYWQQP
Assay: Proliferation of TPO-dependent cell line UT7/EPO-mpl, MTT method (Assay Examples 1, 3, 4)
Type: cell-based
Details: UT7/EPO-mpl cells; concentration giving 50% of the maximum cell growth observed with the same compound
outcome measure: EC50 (µg/mL)

- smiles entry: "CC1=NN(c2ccc(C(C)(C)C)cc2)C(=O)C1=C(C)NNC(=O)c1ccc([N+](=O)[O-])cc1"
  study system: "human TPO receptor (Homo sapiens, UniProt P40238)"
  outcome measure: "EC50"
  test result: 0.23
- smiles entry: "CC1=NN(c2ccccc2)C(=O)C1=C(C)NNC(=O)c1ccccc1[N+](=O)[O-]"
  study system: "human TPO receptor (Homo sapiens, UniProt P40238)"
  outcome measure: "EC50"
  test result: 0.29
- smiles entry: "CC1=NN(c2ccccc2)C(=O)C1=C(C)NNC(=O)c1ccccc1O"
  study system: "human TPO receptor (Homo sapiens, UniProt P40238)"
  outcome measure: "EC50"
  test result: 0.061
- smiles entry: "CC1=NN(c2cccc([N+](=O)[O-])c2)C(=O)C1=C(C)NNC(=O)c1cccc([N+](=O)[O-])c1"
  study system: "human TPO receptor (Homo sapiens, UniProt P40238)"
  outcome measure: "EC50"
  test result: 0.13
- smiles entry: "CC1=NN(c2ccc(C(F)(F)F)cc2)C(=O)C1=C(C)NNC(=O)c1cccc(N)c1"
  study system: "human TPO receptor (Homo sapiens, UniProt P40238)"
  outcome measure: "EC50"
  test result: 0.024
- smiles entry: "CC1=NN(c2ccc(C)c(C)c2)C(=O)C1=C(C)NNC(=O)c1ccc(N)cc1"
  study system: "human TPO receptor (Homo sapiens, UniProt P40238)"
  outcome measure: "EC50"
  test result: 0.01
- smiles entry: "CC1=NN(c2cccc(C(F)(F)F)c2)C(=O)C1=C(C)NNC(=O)c1cc2ccccc2cc1O"
  study system: "human TPO receptor (Homo sapiens, UniProt P40238)"
  outcome measure: "EC50"
  test result: 0.19
- smiles entry: "CC1=NN(c2ccc(C(F)(F)F)cc2)C(=O)C1=C(C)NNC(=O)c1ccccc1O"
  study system: "human TPO receptor (Homo sapiens, UniProt P40238)"
  outcome measure: "EC50"
  test result: 0.019
- smiles entry: "CC1=NN(c2ccc(C)c(C)c2)C(=O)C1=C(C)NNC(=O)c1cc(O)cc(O)c1"
  study system: "human TPO receptor (Homo sapiens, UniProt P40238)"
  outcome measure: "EC50"
  test result: 0.015
- smiles entry: "CC1=NN(c2ccc(I)cc2)C(=O)C1=C(C)NNC(=O)c1ccc(O)cc1"
  study system: "human TPO receptor (Homo sapiens, UniProt P40238)"
  outcome measure: "EC50"
  test result: 0.028
- smiles entry: "CC1=NN(c2ccccn2)C(=O)C1=C(C)NNC(=O)c1ccc(O)cc1O"
  study system: "human TPO receptor (Homo sapiens, UniProt P40238)"
  outcome measure: "EC50"
  test result: 0.6
- smiles entry: "CC1=NN(c2cccc(C(F)(F)F)c2)C(=O)C1=C(C)NNC(=O)c1ccc(C(=O)O)cc1"
  study system: "human TPO receptor (Homo sapiens, UniProt P40238)"
  outcome measure: "EC50"
  test result: 0.0051
- smiles entry: "CC1=NN(c2ccc(I)cc2)C(=O)C1=C(C)NNC(=O)c1ccc(O)cc1O"
  study system: "human TPO receptor (Homo sapiens, UniProt P40238)"
  outcome measure: "EC50"
  test result: 0.0074
- smiles entry: "CC1=NN(c2ccc(C(C)(C)C)cc2)C(=O)C1=C(C)NNC(=O)c1ccccc1O"
  study system: "human TPO receptor (Homo sapiens, UniProt P40238)"
  outcome measure: "EC50"
  test result: 0.028

====

biological target: human TPO receptor (Homo sapiens, UniProt P40238); construct: expressed in transfected cells; experiment: Proliferation of TPO-dependent cell line UT7/EPO-mpl, MTT method (Assay Examples 1, 3, 4); assay type: cell-based; settings: UT7/EPO-mpl cells; value in the presence of 10 ng/ml TPO taken as 100% standard; method of Assay Example 1

- molecule: "CC1=NN(c2ccc(C(C)(C)C)cc2)C(=O)C1=C(C)NNC(=O)c1cccc(N)c1 [compound 70]"
  value unit: "%"
  Efficacy (%) (maximal growth rate): 87
- molecule: "CC1=NN(c2cccc(C(F)(F)F)c2)C(=O)C1=C(C)NNC(=O)c1ccc(O)cc1O [compound 48]"
  value unit: "%"
  Efficacy (%) (maximal growth rate): 62
- molecule: "CC1=NN(c2ccc(C(C)(C)C)cc2)C(=O)C1=C(C)NNC(=O)c1ccc(C(F)(F)F)cc1 [compound 71]"
  value unit: "%"
  Efficacy (%) (maximal growth rate): 89
- molecule: "CC1=NN(c2ccc(I)cc2)C(=O)C1=C(C)NNC(=O)c1ccc(O)c(O)c1 [compound 41]"
  value unit: "%"
  Efficacy (%) (maximal growth rate): 115
- molecule: "CC1=NN(c2ccc(I)cc2)C(=O)C1=C(C)NNC(=O)c1cc2ccccc2cc1O [compound 40]"
  value unit: "%"
  Efficacy (%) (maximal growth rate): 37
- molecule: "CC1=NN(c2ccc(C(F)(F)F)cc2)C(=O)C1=C(C)NNC(=O)c1ccccc1O [compound 30]"
  value unit: "%"
  Efficacy (%) (maximal growth rate): 106
- molecule: "CC1=NN(c2ccc(C)c(C)c2)C(=O)C1=C(C)NNC(=O)c1ccc(O)c(O)c1 [compound 57]"
  value unit: "%"
  Efficacy (%) (maximal growth rate): 97
- molecule: "CC1=NN(c2ccc(C(C)(C)C)cc2)C(=O)C1=C(C)NNC(=O)c1cccc([N+](=O)[O-])c1 [compound 15]"
  value unit: "%"
  Efficacy (%) (maximal growth rate): 109
